Molecular target: Cysteinyl leukotriene receptor 1 (Homo sapiens, UniProt Q9Y271)
Sequence (Q9Y271 whole entry): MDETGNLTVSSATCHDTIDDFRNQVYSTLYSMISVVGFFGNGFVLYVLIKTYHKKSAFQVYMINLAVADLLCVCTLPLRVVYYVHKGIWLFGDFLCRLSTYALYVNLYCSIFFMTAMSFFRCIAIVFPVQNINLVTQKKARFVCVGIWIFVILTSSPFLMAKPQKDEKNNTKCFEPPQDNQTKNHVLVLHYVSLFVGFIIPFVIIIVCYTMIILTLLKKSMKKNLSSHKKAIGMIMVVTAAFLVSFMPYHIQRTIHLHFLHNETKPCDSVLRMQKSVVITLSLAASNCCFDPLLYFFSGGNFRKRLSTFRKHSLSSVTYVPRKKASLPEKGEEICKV
Assay: Inhibition of binding of [ H]-LTD4 to DMSO differentiated U937 cell membranes
pIC50: −log10 of the molar value.
Decision: pIC50 compared against 9; not below it gives Satisfied, below it gives Not satisfied.

Does pIC50 meet or surpass 9 for `O=C(O)CC1(CS[C@H](CCc2ccccc2C(O)(C(F)(F)F)C(F)(F)F)c2cccc(/C=C/c3ccc4sc(Cl)c(Cl)c4n3)c2)CC1` ?
Not satisfied

Reported pIC50 reaches at least 9 for `O=C(O)CC1(CS[C@H](CCc2ccc(C(F)(F)F)cc2)c2cccc(/C=C/c3ccc4sc(Cl)c(Cl)c4n3)c2)CC1` ?
Not satisfied

Tell me whether pIC50 is at least 9 here: `O=C(O)CC1(CS[C@H](CCc2ccc(Br)cc2)c2cccc(/C=C/c3ccc4sc(Cl)c(Cl)c4n3)c2)CC1`
Not satisfied

Quick check, pIC50 >= 9? `O=C(O)CC1(CS[C@H](CCc2cccc(C3(O)CCC3)c2)c2cccc(/C=C/c3ccc4sc(Cl)c(Cl)c4n3)c2)CC1`
Satisfied

Exam item: decide whether the reported pIC50 for `CC(C)(O)c1ccc(CC[C@@H](SCC2(CC(=O)O)CC2)c2cccc(/C=C/c3ccc4sc(Cl)c(Cl)c4n3)c2)cc1` is at least 9.
Satisfied

Dear colleague, could you confirm whether `O=C(O)CC1(CS[C@H](CCc2ccccc2Br)c2cccc(/C=C/c3ccc4sc(Cl)c(Cl)c4n3)c2)CC1` has pIC50 at or above 9?
Not satisfied
